# System: MOLT-4 leukemia
# method description: NCI-60 one-dose screen, 48 h
# condition description: 10 µM unless noted
The panel holds about 83,000 compounds, 20% with a hit somewhere; the sample as a whole holds those more often. Calls of active or inactive are those of the source. Rule for the calls: active = growth percent below 10; inactive = the rest.
Outcome codes: active, inactive

compound	category label
COc1ccc(Nc2nc(-c3cc(O)c(C)c(C)c3O)cs2)cc1	inactive
Cc1ccc(C)n1-c1ccccc1-n1c(C)ccc1C	inactive
NC(=O)c1cc(I)ccc1NC(=O)/C=C/c1ccccc1	active
COc1ccc(Nc2ncc(Br)c(NCCCNC(=O)C3CCCC3)n2)cc1	inactive
CC1OC(n2c3ccccc3c3c4c(c5c6ccccc6[nH]c5c32)C(=O)N(CCN2CCCC2)C4=O)CC(O)C1O (stereo not given)	inactive
CCN1C(=S)N(c2ccccc2)C2C1NN=c1s/c(=C3\C(=O)N(C(C)C)c4ccccc43)c(=O)n12 (stereo not given)	inactive
Nc1c(C(=O)Nc2ccccc2C(F)(F)F)sc2nc3c(cc12)CCC3	inactive
COC(=O)C1Cc2ccccc2CN1C(=O)c1ccc2c(c1)Cc1ccccc1-2 (stereo not given)	inactive
c1cc2c(ccc3[nH]c(-c4ccc5[nH]ncc5c4)c4c(c32)CCCC4)n1	active
COc1ccc(CN2c3ccccc3Sc3ccccc32)cc1F	inactive
Cn1cc(-c2nonc2-c2cn(C)c3ccccc23)c2ccccc21	inactive
COCCOc1cc2ncnc(N3CCN(c4ncc(S(=O)(=O)N5CCCCC5)cn4)CC3)c2cc1OCCOC	inactive
CC(C)=CCC[C@](C)(O)[C@H]1CC[C@]2(C)[C@@H]1CC[C@@H]1[C@@]3(C)C/C(=C/c4ccco4)C(=O)C(C)(C)[C@@H]3CC[C@]12C	inactive
Nc1nc(N)c(-c2ccc(Cl)c(Cl)c2)c(CBr)n1	inactive
Nc1nc(-c2ccc(Cl)cc2)nc2c1sc(=S)n2-c1ccccc1	inactive
CNc1nnc2n(-c3ccccc3)c(=O)c3cnn(-c4ccccc4)c3n12	inactive
CC(=O)Oc1ccc(/C(=C(\C)c2ccc(Cl)cc2)c2ccc(OCCN3CCCCC3)cc2)cc1	active
O=C1NC(=O)C(Cc2ccc(OCc3ccc(-c4ccc(Cl)cc4Cl)cc3)cc2)S1 (stereo not given)	inactive
COc1cc(-c2nccc3[nH]c(-c4ccc5cc[nH]c5c4)nc23)cc(OC)c1OC	inactive
COc1cccc(CNc2ccc3ncnc(Nc4ccc(F)c(Cl)c4)c3c2)c1	inactive
O=C(Nc1cccc(Cl)c1)Nc1cccc(Cn2c(=O)[nH]c3ccc(Oc4ncccn4)cc3c2=O)c1	active
CN1CCN(C(=O)c2ccc(NC(=O)c3cc4c(nn3)NCCN4Cc3cc(Cl)ccc3Cl)cc2)CC1	inactive
N=C(N)c1ccc(-c2ccc(-c3ccc(Cl)cc3Cl)s2)cc1	active
O=C(O)c1cn(C2CC2)c2cc(N3CCN(Cc4ccc5ccccc5c4O)CC3)c(F)cc2c1=O	inactive
O=C(OC(CO)C(=O)NC12CC3CC(CC(C3)C1)C2)c1ccc(Cl)cc1 (stereo not given)	inactive
Cc1sc2nc(NCCc3c[nH]c4ccc(Cl)cc34)[nH]c(=O)c2c1C	inactive
Cc1cccc(/C=C2\CN(C(=O)OC(C)(C)C)C/C(=C\c3cccc(C)c3)C2=O)c1	inactive
CCCCNC(=O)Oc1ccc(/C(=C(/C)Cc2ccc(OC)cc2)c2ccc(OCCN3CCCC3)cc2)cc1	inactive
Cc1ccc(C[P+](c2ccccc2)(c2ccccc2)c2ccccc2)cc1	active
Cc1cc(=O)oc2cc(OCc3nn4c(Nc5nc6ccccc6s5)c(-c5ccccc5)nc4s3)ccc12	inactive
